# Target System: 72 kDa type IV collagenase (Homo sapiens)
# Sequence (P08253 whole entry): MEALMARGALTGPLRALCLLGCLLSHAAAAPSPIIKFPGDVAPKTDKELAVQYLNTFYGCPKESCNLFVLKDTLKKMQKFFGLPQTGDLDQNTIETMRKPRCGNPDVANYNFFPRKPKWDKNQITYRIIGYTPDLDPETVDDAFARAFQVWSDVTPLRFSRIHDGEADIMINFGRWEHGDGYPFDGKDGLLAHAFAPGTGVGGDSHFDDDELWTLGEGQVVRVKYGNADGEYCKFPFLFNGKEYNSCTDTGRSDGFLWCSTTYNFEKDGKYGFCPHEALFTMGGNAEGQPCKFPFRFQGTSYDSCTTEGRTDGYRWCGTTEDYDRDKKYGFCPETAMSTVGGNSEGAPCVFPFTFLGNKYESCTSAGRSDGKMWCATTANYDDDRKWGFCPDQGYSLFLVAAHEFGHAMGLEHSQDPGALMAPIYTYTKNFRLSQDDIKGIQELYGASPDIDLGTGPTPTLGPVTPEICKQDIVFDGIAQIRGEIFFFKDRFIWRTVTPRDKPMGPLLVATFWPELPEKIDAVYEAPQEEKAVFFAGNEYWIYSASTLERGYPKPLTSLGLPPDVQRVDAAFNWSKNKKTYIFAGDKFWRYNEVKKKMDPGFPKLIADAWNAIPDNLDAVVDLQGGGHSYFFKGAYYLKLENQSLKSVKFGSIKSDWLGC
pIC50: −log10 of the molar value.
Property Name: pIC50

[I] O=C(O)[C@@H](Cc1ccccc1)NS(=O)(=O)c1ccc(C#Cc2ccccc2)cc1
[II] COc1ccc(C#Cc2ccc(S(=O)(=O)N[C@H](Cc3c[nH]c4ccccc34)C(=O)O)cc2)cc1
[III] Cc1ccc(C#Cc2ccc(S(=O)(=O)N[C@@H](C(=O)O)C(C)C)s2)cc1
**Query** Please arrange the 3 compounds above from largest to smallest pIC50 value. Returns: the labels listed in the requested order.
**Result** II, III, I

###

pIC50: −log10 of the molar value.
Reported pIC50 for target or system Matrix metalloproteinase-9 (Homo sapiens, UniProt P14780), by entry.
Property Name: pIC50

# Smiles Repr, pIC50
measured = [
    ("COc1ccc(C#Cc2ccc(S(=O)(=O)N[C@H](Cc3c[nH]c4ccccc34)C(=O)O)cc2)cc1", 8.09),
]

[1] Cc1ccc(C#Cc2ccc(S(=O)(=O)N[C@H](Cc3c[nH]c4ccccc34)C(=O)O)s2)cc1
[2] CC(C)[C@H](C(=O)O)N(C)S(=O)(=O)c1ccc(-c2nnn(-c3ccccc3)n2)cc1
[3] O=C(O)[C@@H](Cc1ccccc1)NS(=O)(=O)c1ccc(-c2ccccc2)cc1
**Query** rank_up(items): orders items by reported pIC50 in ascending numerical order. Form entry: ranked labels (order as requested).
**Result** 3, 2, 1

[1] COc1ccc(C#Cc2ccc(S(=O)(=O)N[C@H](Cc3c[nH]c4ccccc34)C(=O)O)cc2[N+](=O)[O-])cc1
[2] CCc1ccc(C#Cc2ccc(S(=O)(=O)N[C@H](Cc3c[nH]c4ccccc34)C(=O)O)s2)cc1
[3] Cc1ccc(C#Cc2ccc(S(=O)(=O)N[C@@H](C(=O)O)C(C)C)s2)cc1
**Query** Order these by pIC50, descending, and give the full ranking. Output spec: labels arranged per the requested ranking.
**Result** 2, 3, 1

[P] Cc1ccccc1C#Cc1ccc(S(=O)(=O)N[C@H](Cc2c[nH]c3ccccc23)C(=O)O)s1
[Q] O=C(O)[C@@H](Cc1ccccc1)NS(=O)(=O)c1ccc(C#Cc2ccccc2)cc1
[R] CC(C)[C@@H](NS(=O)(=O)c1ccc(-c2nnn(-c3ccccc3)n2)cc1)C(=O)O
**Query** Falling order of pIC50, please. API: response body holds the labels in the requested order.
**Result** R, Q, P

Just for reference, ChEMBL document CHEMBL1132207 is where these values come from.
